Origin of measurements: ChEMBL document CHEMBL3817841

Kindly supply the reported pIC50 values for the records listed here.
# systemTested: Dihydroorotate dehydrogenase (quinone), mitochondrial (Homo sapiens, UniProt Q02127)
# Sequence (Q02127 whole entry, the tested form may be a part): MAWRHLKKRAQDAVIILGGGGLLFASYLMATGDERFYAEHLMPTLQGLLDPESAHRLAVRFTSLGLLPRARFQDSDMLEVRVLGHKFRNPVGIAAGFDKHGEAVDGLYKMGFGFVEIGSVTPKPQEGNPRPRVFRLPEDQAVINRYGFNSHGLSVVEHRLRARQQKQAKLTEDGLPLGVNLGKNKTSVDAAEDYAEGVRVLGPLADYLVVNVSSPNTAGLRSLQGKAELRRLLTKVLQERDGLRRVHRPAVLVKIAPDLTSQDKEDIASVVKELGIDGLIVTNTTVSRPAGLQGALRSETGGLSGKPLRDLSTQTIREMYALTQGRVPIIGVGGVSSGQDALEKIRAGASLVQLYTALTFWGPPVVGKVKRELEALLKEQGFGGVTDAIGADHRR
# protocolText: Inhibition of N-terminally truncated human DHODH (Met30 to Arg396 residues) expressed in Escherichia coli BL21 (DE3) using dihydroorotate as substrate preincubated for 5 mins followed by substrate addition measured every 30 secs for 6 mins by DCIP-based spectrophotometric assay
Just the number, please; pIC50 means minus log10 of the concentration in mol/L.

Entry under test: `CCCCOc1cccc(-c2cc(C(=O)O)c3ccccc3n2)c1` . Its pIC50 was 5.88

Entry `O=C(O)c1cc(-c2ccc(Cl)c(Cl)c2)nc2ccc(Br)cc12` ; pIC50 = 7.24

Looking up `O=C(O)c1cc(-c2ccc3c(c2)OCO3)nc2ccccc12` , I see its pIC50 listed as 5.29

Noted for `CCCCc1ccc(-c2cc(C(=O)O)c3ccccc3n2)cc1` : its pIC50 reads 6.36

Looking up `COC(=O)c1cc(-c2ccc(OC)c(OC)c2)nc2ccccc12` , I found its pIC50 recorded as 5.49

Entry CCC(C)c1ccc(-c2nc3ccc(Br)cc3c(C(=O)O)c2C)cc1 (centres undefined) , pIC50 reported as 8.01

The molecule listed as `CC(C)c1ccc(-c2cc(C(=O)O)c3cc(Br)ccc3n2)cc1` has a reported pIC50 of 6.87

Recorded result, `O=C(O)c1cc(-c2ccc(Cl)cc2Cl)nc2ccc(Br)cc12` , pIC50: 6.18

Per the records, this molecule ( `Cc1c(-c2ccc(C(C)C)cc2)nc2ccccc2c1C(=O)O` ) has pIC50 equal to 5.81
